Would you mind telling me the reported melting point of each entry?

// below: answered compounds
### Prompt Would you mind telling me what melting point value was observed for "Cn1ncc(NCCCN2CCC(c3noc4cc(F)ccc34)CC2)c(Cl)c1=O" ?
### Response 200 to 202 °C

### Prompt Would you mind telling me what melting point value was observed for "Nc1ccc(CCc2n[nH]c3c2c(=O)n(-c2ccccc2)c2ncccc32)cc1" ?
### Response > 310 °C

### Prompt Would you mind telling me what melting point value was observed for "S=c1cc(-c2nc[nH]n2)oc2ccccc12" ?
### Response 232 °C

### Prompt Would you mind telling me what melting point value was observed for COc1cc(Oc2ccc(S(C)(=O)=O)cc2)cc2cc(C3=NCC(CC(=O)O)S3)[nH]c12 (stereo not given) ?
### Response 144 to 145 °C

### Prompt Would you mind telling me what melting point value was observed for O=S(=O)(c1ccc2ccccc2c1)N1CCCC1c1ccc(F)cc1 (racemic) ?
### Response 166 °C

### Prompt Would you mind telling me what melting point value was observed for "CC(C)(C)[N+]([O-])=Cc1ccc(S(C)(=O)=O)o1" ?
### Response 138 °C

Hi! Can you tell me melting point for each of these compounds?
1. CC(C)(O)C(=O)Nc1c(C(=O)c2ccccc2)[nH]c2cc(Cl)ccc12
2. Clc1nc(Cl)nc(NC2CC2)n1

### Response
["234 to 238 °C", "99 to 101 °C"]

Hi! Can you tell me melting point for each of these compounds?
1. CCOC(=O)CNS(=O)(=O)c1ccc(N2CCC(NC[C@H](O)c3ccc(O)c(NS(C)(=O)=O)c3)CC2)cc1
2. COc1cc(OCCN(C)C)ccc1/C=C/c1cc(/C=C/c2ccc3cc[nH]c3c2)[nH]n1

### Response
1: 105 to 107 °C; 2: 109 to 112 °C
